# PROTOCOL DETAILS: Intravenous and oral bioavailability in mice
# Assay type: in vivo
# MEASUREMENT CONDITIONS: mouse, oral (PO) 10 mg/kg single dose, plasma
Could you label it t if measured AUC(0-t) is 900 ng·h/mL or higher, and f otherwise?

Look over these answered cases.
>>> qualitative_label("N#C[C@@H]1CC(F)(F)CN1C(=O)CNC(=O)c1c[nH]c(=O)c2ccccc12 [Example 1]")
"f"
>>> qualitative_label("N#C[C@@H]1CC(F)(F)CN1C(=O)CNC(=O)c1ccncc1-c1ccccc1 [Compound 13]")
"f"
>>> qualitative_label("N#C[C@@H]1CC(F)(F)CN1C(=O)CNC(=O)c1ccncc1Cc1ccccc1 [Compound 50]")
"t"
>>> qualitative_label("N#C[C@@H]1CC(F)(F)CN1C(=O)CNC(=O)c1c[nH]c(=O)cc1-c1ccc(F)cc1 [Compound 109]")
"t"

Okay, now this compound:
Threshold query (AUC(0-t) >= 900 ng·h/mL) on N#C[C@@H]1CC(F)(F)CN1C(=O)CNC(=O)c1ccncc1-c1ccc(F)cc1 [Compound 52]
f

====

# MEASURED TARGET: recombinant mouse FAPα (rmFAPα) (Mus musculus)
# Construct: purchased R&S system (so in the source)
# Sequence (P97321 1-761): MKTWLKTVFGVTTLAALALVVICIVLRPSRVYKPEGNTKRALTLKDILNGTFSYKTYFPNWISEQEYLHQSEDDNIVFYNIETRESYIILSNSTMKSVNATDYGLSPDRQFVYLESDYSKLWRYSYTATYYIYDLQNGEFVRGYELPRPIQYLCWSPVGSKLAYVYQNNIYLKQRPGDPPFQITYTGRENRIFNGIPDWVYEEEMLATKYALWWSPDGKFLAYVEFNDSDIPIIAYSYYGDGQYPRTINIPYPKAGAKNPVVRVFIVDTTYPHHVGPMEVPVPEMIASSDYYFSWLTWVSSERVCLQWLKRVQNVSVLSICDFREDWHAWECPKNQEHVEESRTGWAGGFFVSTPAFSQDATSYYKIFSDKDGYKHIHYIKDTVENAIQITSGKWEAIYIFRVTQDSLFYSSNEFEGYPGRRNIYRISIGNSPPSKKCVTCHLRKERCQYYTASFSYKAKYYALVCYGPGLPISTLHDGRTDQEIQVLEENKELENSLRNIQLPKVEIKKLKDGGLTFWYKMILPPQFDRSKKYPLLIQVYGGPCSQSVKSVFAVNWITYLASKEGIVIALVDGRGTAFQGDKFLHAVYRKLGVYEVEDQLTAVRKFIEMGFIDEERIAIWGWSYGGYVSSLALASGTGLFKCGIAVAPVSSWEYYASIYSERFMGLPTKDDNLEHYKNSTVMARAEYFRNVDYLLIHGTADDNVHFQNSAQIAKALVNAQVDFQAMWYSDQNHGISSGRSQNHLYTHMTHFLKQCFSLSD
# PROTOCOL DETAILS: FAPα enzymatic exopeptidase (dipeptidase) activity assay
# Format: biochemical
# MEASUREMENT CONDITIONS: 1 μM test compound; Z-Gly-Pro-AMC substrate; read-out: rmFAPα (% exo inh @ 1 μM)
READOUT NAME: inhibition at 1 µM

Some molecules with known inhibition at 1 µM results, for comparison:
>>> observed_value("N#C[C@@H]1CC(F)(F)CN1C(=O)CNC(=O)N1Cc2ccccc2C1")
"< 25%"
>>> observed_value("N#C[C@@H]1CC(F)(F)CN1C(=O)CNC(=O)c1cn(C2CC2)c(=O)c2ccccc12")
"25 to 50%"

Now consider a different molecule.
Answer with the recorded inhibition at 1 µM of N#C[C@@H]1CC(F)(F)CN1C(=O)CNC(=O)C1Cc2ccccc2C1 only.
< 25%

====

Below is a list of entries, each paired with its recorded pIC50 value.
# MEASURED TARGET: recombinant mouse PREP (rmPREP) (Mus musculus)
# Sequence (Q9QUR6 whole entry): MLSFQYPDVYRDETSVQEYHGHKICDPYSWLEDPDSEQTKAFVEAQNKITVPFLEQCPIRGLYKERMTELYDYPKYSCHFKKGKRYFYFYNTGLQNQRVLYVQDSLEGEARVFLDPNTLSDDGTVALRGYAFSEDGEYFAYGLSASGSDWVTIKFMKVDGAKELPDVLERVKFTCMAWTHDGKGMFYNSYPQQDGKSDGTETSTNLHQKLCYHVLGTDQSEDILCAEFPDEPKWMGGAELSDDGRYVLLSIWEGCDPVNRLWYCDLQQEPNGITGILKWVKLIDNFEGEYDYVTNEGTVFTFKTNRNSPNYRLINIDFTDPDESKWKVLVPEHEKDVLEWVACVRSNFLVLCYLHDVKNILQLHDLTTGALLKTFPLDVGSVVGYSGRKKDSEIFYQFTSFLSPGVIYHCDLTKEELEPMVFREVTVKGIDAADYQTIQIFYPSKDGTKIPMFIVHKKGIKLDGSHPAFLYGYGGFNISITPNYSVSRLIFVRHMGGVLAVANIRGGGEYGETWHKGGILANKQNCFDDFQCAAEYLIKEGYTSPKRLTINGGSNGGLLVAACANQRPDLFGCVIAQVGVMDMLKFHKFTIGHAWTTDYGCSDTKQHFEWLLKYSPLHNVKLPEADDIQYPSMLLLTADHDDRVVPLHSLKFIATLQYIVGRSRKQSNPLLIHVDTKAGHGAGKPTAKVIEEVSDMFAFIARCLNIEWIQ
# PROTOCOL DETAILS: PREP enzymatic activity assay
# MEASUREMENT CONDITIONS: Z-Gly-Pro-AMC substrate
pIC50: −log10 of the molar value.

In the examples that follow, each entry is paired with its recorded pIC50.
>>> observed_value("Cn1cc(C(=O)NCC(=O)N2CC(F)(F)C[C@H]2C#N)ccc1=O [Compound 16]")
"< 5.00"
>>> observed_value("N#C[C@@H]1CC(F)(F)CN1C(=O)CNC(=O)c1ccc2ncccc2c1 [Example 4]")
"< 5.00"

Quickly give me recorded pIC50 for N#C[C@@H]1CC(F)(F)CN1C(=O)CNC(=O)c1ccncc1-c1ccccc1 [Compound 13]
< 5.00

====

# MEASURED TARGET: recombinant human FAPα (rhFAPα) (Homo sapiens)
# Construct: purchased R&S system (so in the source)
# PROTOCOL DETAILS: FAPα enzymatic exopeptidase (dipeptidase) activity assay
# Format: biochemical
# MEASUREMENT CONDITIONS: read-out: rhFAPα (% exo inh @ 1 μM)
Examples of compounds with documented inhibition at 1 µM follow.

// known answers, use as guide
>>> observed_value("N#C[C@@H]1CC(F)(F)CN1C(=O)CNC(=O)c1ccncc1C1=CCNCC1 [Compound 105, 2,2,2-trifluoroacetate]")
"> 50%"
>>> observed_value("N#C[C@@H]1CC(F)(F)CN1C(=O)CNC(=O)c1ccncc1C1CC1")
"> 50%"
>>> observed_value("N#C[C@@H]1CC(F)(F)CN1C(=O)CNC(=O)c1ccncc1-c1ccc(F)cc1")
"> 50%"
>>> observed_value("CC(NC(=O)c1c[nH]c(=O)c2ccccc12)C(=O)N1CC(F)(F)C[C@H]1C#N (stereo partly shown)")
"< 25%"
>>> observed_value("N#C[C@H]1CC(F)(F)CN1C(=O)CNC(=O)c1ccncc1C1CC1")
"> 50%"
>>> observed_value("N#C[C@@H]1CC(F)(F)CN1C(=O)CNC(=O)c1c[nH]c(=O)cc1-c1ccc(F)cc1")
"> 50%"
>>> observed_value("N#C[C@@H]1CC(F)(F)CN1C(=O)CNC(=O)c1ccncc1-c1cc(F)cc(F)c1")
"> 50%"
>>> observed_value("C=C(c1ccccc1)c1cnccc1C(=O)NCC(=O)N1CC(F)(F)C[C@H]1C#N")
"> 50%"
>>> observed_value("N#C[C@@H]1CC(F)(F)CN1C(=O)CNC(=O)c1ccncc1-c1ccccc1")
"> 50%"

Let us examine a further case.
Retrieve inhibition at 1 µM measured for Cn1cc(C(=O)NCC(=O)N2CC(F)(F)C[C@H]2C#N)ccc1=O and print it.
> 50%

====

# MEASURED TARGET: recombinant human DPP9 (rhDPP9) (Homo sapiens)
# Sequence (Q86TI2 whole entry): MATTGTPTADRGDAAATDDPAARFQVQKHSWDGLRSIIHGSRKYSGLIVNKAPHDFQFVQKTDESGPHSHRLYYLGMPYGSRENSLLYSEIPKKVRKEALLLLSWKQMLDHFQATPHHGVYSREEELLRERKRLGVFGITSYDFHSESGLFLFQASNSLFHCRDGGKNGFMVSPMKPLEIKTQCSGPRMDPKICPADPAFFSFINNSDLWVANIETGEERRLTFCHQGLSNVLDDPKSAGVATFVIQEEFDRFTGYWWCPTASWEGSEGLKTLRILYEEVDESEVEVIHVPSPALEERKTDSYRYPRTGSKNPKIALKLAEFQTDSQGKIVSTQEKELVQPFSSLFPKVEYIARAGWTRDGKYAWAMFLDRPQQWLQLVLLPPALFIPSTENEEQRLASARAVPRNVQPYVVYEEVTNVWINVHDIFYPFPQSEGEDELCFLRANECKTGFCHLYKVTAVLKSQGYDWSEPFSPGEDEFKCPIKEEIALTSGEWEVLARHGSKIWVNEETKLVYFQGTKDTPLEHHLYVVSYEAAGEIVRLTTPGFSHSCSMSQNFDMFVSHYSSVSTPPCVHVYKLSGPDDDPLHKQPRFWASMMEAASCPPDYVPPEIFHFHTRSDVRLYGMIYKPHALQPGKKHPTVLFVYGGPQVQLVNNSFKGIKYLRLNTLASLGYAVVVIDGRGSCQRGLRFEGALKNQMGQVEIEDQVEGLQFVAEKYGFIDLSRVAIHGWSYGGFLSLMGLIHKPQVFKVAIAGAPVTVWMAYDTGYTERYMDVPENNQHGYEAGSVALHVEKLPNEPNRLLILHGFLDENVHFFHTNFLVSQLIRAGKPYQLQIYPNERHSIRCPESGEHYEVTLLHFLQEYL
# PROTOCOL DETAILS: DPP9 enzymatic activity assay
# MEASUREMENT CONDITIONS: H-Gly-Pro-AMC substrate
Overview of reported IC50 across a group of compounds:

>>> observed_value("N#C[C@@H]1CC(F)(F)CN1C(=O)CNC(=O)c1ccncc1NC1CCNCC1")
"> 10 µM"

Output measured IC50 for this item: N#C[C@@H]1CC(F)(F)CN1C(=O)CNC(=O)c1ccncc1C1CC1
1 to 10 µM

Please supply the value of reported IC50 for the item C=Cc1cnccc1C(=O)NCC(=O)N1CC(F)(F)C[C@H]1C#N
> 10 µM

Answer with the recorded IC50 for the compound listed here: N#C[C@@H]1CC(F)(F)CN1C(=O)CNC(=O)c1ccncc1Oc1ccccc1
> 10 µM

Consider the compound N#C[C@@H]1CC(F)(F)CN1C(=O)CNC(=O)c1c[nH]c(=O)cc1Cc1ccccc1 and give its recorded IC50.
1 to 10 µM

# return recorded IC50 for input N#C[C@@H]1CC(F)(F)CN1C(=O)CNC(=O)c1ccncc1-c1cc(F)cc(F)c1
> 10 µM

For the compound N#C[C@@H]1CC(F)(F)CN1C(=O)CNC(=O)c1ccncc1-c1ccccc1 , give its reported IC50.
1 to 10 µM

Let me know recorded IC50 for N#C[C@@H]1CC(F)(F)CN1C(=O)CNC(=O)c1ccncc1Nc1ccnc2ccccc12 , thanks.
> 10 µM

====

# MEASURED TARGET: recombinant human FAPα (rhFAPα) (Homo sapiens, UniProt Q12884)
# Construct: purchased R&S system (so in the source)
# Sequence (Q12884 whole entry): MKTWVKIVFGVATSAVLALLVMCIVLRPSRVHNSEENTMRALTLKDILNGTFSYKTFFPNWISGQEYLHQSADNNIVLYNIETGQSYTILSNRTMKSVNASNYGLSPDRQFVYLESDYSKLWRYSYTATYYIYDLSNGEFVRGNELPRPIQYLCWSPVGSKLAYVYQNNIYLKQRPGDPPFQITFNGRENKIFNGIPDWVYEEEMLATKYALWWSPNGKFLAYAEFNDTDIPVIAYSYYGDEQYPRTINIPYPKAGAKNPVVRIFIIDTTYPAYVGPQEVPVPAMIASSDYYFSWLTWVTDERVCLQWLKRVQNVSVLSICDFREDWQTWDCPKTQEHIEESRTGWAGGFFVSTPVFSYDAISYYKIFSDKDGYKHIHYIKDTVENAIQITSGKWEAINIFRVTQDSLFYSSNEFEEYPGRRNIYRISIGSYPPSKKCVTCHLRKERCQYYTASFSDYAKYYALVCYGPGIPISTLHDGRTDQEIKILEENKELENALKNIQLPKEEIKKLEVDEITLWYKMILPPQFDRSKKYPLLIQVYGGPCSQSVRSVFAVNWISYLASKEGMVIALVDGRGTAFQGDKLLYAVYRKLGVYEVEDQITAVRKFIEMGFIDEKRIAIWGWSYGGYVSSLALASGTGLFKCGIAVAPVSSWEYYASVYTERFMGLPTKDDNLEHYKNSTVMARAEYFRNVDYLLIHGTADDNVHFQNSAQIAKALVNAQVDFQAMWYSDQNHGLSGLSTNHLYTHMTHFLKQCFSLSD
# PROTOCOL DETAILS: FAPα enzymatic exopeptidase (dipeptidase) activity assay
# Format: biochemical
# MEASUREMENT CONDITIONS: read-out: rhFAPα (exo IC50); Table 3; exopeptidase
pIC50: −log10 of the molar value.
READOUT NAME: pIC50

Tell me measured pIC50 for N#C[C@@H]1CC(F)(F)CN1C(=O)CNC(=O)c1ccncc1-c1cc(F)cc(F)c1 [Compound 47] please.
> 6.00

====

# MEASURED TARGET: recombinant human PREP (rhPREP) (Homo sapiens)
# Sequence (P48147 whole entry): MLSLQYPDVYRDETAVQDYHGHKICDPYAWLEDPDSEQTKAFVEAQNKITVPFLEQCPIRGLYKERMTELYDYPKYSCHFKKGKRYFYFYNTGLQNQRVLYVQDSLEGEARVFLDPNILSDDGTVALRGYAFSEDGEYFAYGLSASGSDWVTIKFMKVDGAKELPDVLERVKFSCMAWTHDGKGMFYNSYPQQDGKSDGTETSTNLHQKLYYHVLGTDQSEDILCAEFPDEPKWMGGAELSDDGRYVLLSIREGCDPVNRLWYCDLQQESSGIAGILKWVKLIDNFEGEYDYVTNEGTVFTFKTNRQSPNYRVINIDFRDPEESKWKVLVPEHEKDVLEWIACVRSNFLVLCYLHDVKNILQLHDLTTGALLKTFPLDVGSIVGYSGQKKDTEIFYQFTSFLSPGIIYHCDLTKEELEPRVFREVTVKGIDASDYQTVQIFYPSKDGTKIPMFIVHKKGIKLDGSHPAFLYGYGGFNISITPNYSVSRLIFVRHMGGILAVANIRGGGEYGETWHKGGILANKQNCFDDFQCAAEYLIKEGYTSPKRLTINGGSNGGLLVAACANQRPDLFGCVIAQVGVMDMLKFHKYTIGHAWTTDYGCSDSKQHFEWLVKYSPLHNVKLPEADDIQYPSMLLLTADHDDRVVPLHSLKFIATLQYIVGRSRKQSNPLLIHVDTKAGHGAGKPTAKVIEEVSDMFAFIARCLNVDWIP
# PROTOCOL DETAILS: PREP enzymatic activity assay
# MEASUREMENT CONDITIONS: Z-Gly-Pro-AMC substrate
Listed here are compounds together with their documented IC50.

Reference set (3 entries):
>>> observed_value("N#C[C@@H]1CC(F)(F)CN1C(=O)CNC(=O)c1ccncc1Nc1ccccc1")
"> 10 µM"
>>> observed_value("N#C[C@@H]1CC(F)(F)CN1C(=O)CNC(=O)c1ccncc1Nc1ccc(F)cc1 [Compound 114, 2,2,2-trifluoroacetate]")
"> 10 µM"
>>> observed_value("N#C[C@@H]1CC(F)(F)CN1C(=O)CNC(=O)c1c[nH]c(=O)cc1-c1ccccc1")
"> 10 µM"

Specify IC50 for N#C[C@@H]1CC(F)(F)CN1C(=O)CNC(=O)c1ccncc1Oc1ccc(F)cc1 and stop.
> 10 µM

Supply reported IC50 belonging to this compound: N#C[C@@H]1CC(F)(F)CN1C(=O)CNC(=O)c1ccncc1C1CC1
1 to 10 µM

Please look at this compound and report its IC50: N#C[C@@H]1CC(F)(F)CN1C(=O)CNC(=O)c1ccc2ncccc2c1
> 10 µM

State, in one line, measured IC50 of Cc1noc(C)c1-c1cnccc1C(=O)NCC(=O)N1CC(F)(F)C[C@H]1C#N
> 10 µM

Supply reported IC50 belonging to this compound: N#C[C@@H]1CC(F)(F)CN1C(=O)CNC(=O)c1ccncc1-c1ccc(Cl)c(F)c1
> 10 µM
